Biological target: human factor XIa (Homo sapiens)
Sequence (P03951 388-625 limits assumed): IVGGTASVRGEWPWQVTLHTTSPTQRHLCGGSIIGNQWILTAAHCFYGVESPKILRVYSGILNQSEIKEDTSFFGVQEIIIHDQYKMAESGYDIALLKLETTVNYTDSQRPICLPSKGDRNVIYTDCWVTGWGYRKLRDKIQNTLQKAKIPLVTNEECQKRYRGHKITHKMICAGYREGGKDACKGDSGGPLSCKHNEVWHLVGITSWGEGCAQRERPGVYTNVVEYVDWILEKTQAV
Sequence (P03951 19-387 partner limits assumed): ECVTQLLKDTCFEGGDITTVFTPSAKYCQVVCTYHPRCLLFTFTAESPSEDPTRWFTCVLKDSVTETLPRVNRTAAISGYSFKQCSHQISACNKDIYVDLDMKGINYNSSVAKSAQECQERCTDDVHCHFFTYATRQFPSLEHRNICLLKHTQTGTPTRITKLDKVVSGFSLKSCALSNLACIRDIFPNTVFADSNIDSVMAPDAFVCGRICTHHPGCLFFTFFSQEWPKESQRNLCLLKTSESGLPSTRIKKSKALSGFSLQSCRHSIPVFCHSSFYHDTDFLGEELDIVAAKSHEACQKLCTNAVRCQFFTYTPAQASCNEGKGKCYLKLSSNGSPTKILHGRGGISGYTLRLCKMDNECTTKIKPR
Structures can show the parent of a compound that is named as a salt.
Give pIC50 for every item shown.
For clarity, pIC50 is expressed as the negative log10 of concentration in mol/L.

Incoming: Field request: pIC50 | item: CN(C)CCCOc1ccc(-c2cccc(C[C@H](NC(=O)[C@H]3CC[C@H](CN)CC3)C(=O)Nc3ccc(-c4nc(C(F)(F)C(F)(F)C(=O)O)n[nH]4)cc3)c2)cn1 [Example 109, hydrochloride]
Outgoing: 8.22

Incoming: Field request: pIC50 | item: CN1CCN(c2ncc(-c3cccc(C[C@H](NC(=O)[C@H]4CC[C@H](CN)CC4)C(=O)Nc4ccc(-c5nnn[nH]5)cc4)c3)cn2)CC1 [Example 69, hydrochloride]
Outgoing: 8.31

Incoming: Field request: pIC50 | item: CN(C)CCNC(=O)c1cccc(-c2cccc(C[C@H](NC(=O)[C@H]3CC[C@H](CN)CC3)C(=O)Nc3ccc(-c4nnn[nH]4)cc3)c2)c1 [Example 39, hydrochloride]
Outgoing: 8.05

Incoming: Field request: pIC50 | item: CNC(=O)c1ccc(F)c(-c2cccc(C[C@H](NC(=O)[C@H]3CC[C@H](CN)CC3)C(=O)Nc3ccc(-c4nnn[nH]4)cc3)c2)c1 [Example 62, hydrochloride]
Outgoing: 8.21

Incoming: Field request: pIC50 | item: CN(C)c1ncc(-c2cccc(C[C@H](NC(=O)[C@H]3CC[C@H](CN)CC3)C(=O)Nc3ccc4[nH]c(=O)[nH]c4c3)c2)cn1 [Example 73, hydrochloride]
Outgoing: 7.60
